system: EGFR; conditions: concentration: 1 μM, replicates: in singlicate; n = 1;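 note: KINOMEscan kinase panel screen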
readout: %Inh (%)
Respond with the bare value in %.

compound	%Inh / %
Cc1ccccc1-n1cnc2c(N)ncnc21	0
COc1cc(Nc2nccc(N3CCC(NC(=O)Nc4cc(C)ccc4C)C3)n2)cc(OC)c1OC (centres unmarked)	63
COc1cccc(NC(=O)NC2CCN(c3ccnc(Nc4ccc(F)cc4)n3)C2)c1 (centres unmarked)	17
COc1ccccc1CNC(=O)c1cc(C(=O)c2ccccc2C)c[nH]1	36
CC(C)(C)c1ccc(C(=O)Nc2cn3cc(-c4cccnc4)ccc3n2)cc1	17
CC(C)(C)c1ccc(C(=O)Nc2cn3cc(Cl)ccc3n2)cc1	0
Cc1cccc(-c2nc(Nc3ccncc3)c3ccccc3n2)n1	6
Cc1ccc(NC(=O)Nc2cc(C(C)(C)C)nn2-c2ccccc2)cc1	38

%Inh in this record for `CCn1c(-c2ccccn2)nc2cnccc21` : 15

%Inh in this record for CCCc1ccc(S(=O)(=O)NC2CCN(c3ccnc(Nc4ccc(F)cc4)n3)C2)cc1 (centres unmarked) : 0

###

system: FLT4; conditions: concentration: 1 μM, replicates: in singlicate; n = 1
readout: %Inh (%)
Respond with the bare value in %.

compound	value_observed
CC1=C(C(=O)Nc2cc3cn[nH]c3cc2F)C(c2ccc(C(F)(F)F)cc2)CC(=O)N1 (stereo not drawn) [GSK429286]	11
COc1ccccc1CNC(=O)c1cc(C(=O)c2ccccc2C)c[nH]1 [GSK364507]	5
COc1cc(Nc2nccc(N3CCC(NC(=O)Nc4cc(C)ccc4C)C3)n2)cc(OC)c1OC (stereo not drawn) [GSK1379762]	14

Measured %Inh for this entry Cc1cccc(-c2cc(Nc3ccncc3)c3ccccc3n2)n1 [GSK223675] on FLT4: 0

Measured %Inh for this entry Cl.NC(=O)c1cccc(Nc2nccc(Nc3ccc(Oc4cccc(Cl)c4)c(Cl)c3)n2)c1 [GW659008] on FLT4: 0

###

system: TNIK; conditions: concentration: 1 μM, replicates: in singlicate; n = 1
readout: %Inh (%)
Respond with the bare value in %.

The cases that follow already have their %Inh on record.
compound	test_target	value_units	value_observed
Cn1ccc2ncnc(Oc3cccc(C(=O)Nc4ccccc4)c3)c21	TNIK	%	16
CS(=O)(=O)c1ccc(-c2c(-c3ncn[nH]3)sc(N3CCOCC3)c2C#N)cc1	TNIK	%	20
CSc1nn2c(=O)cc(N3CCOCC3)nc2n1Cc1cccc(C(F)(F)F)c1C	TNIK	%	0

%Inh in this record for `Cc1cccc(-c2nc(Nc3cccc(C(N)=O)c3)c3ccccc3n2)n1` : 2

%Inh in this record for `Cc1ccc(NC(=O)Nc2cccc(Cl)c2)cc1-c1ccc(C(=O)Nc2ccncc2)cc1` : 0

%Inh in this record for CCCc1ccc(S(=O)(=O)NC2CCN(c3ccnc(Nc4ccc(F)cc4)n3)C2)cc1 (stereo not shown) : 0

%Inh in this record for `COc1ccccc1-c1ccc2c(NC(=O)C3CC3)n[nH]c2n1` : 0

%Inh in this record for `Cc1cccc(-c2nc(-c3ccc(S(C)(=O)=O)cc3)sc2-c2ccnc(NCCc3ccccc3)c2)c1` : 10

###

tested on: BMPR1B; conditions: concentration: 1 μM, replicates: in singlicate; n = 1
%Inh values, listed per item
Respond with the bare value in %.

The cases that follow already have their %Inh on record.
molecule	value_units	%Inh
CC(=O)Nc1nc2cnc(Nc3cc(NC(=O)c4cccc(CCC#N)c4)ccc3C)nc2s1	%	0
Cn1ccc2ncnc(Oc3ccc(Nc4nc5ccccc5[nH]4)cc3)c21	%	0
O=S(=O)(c1ccc(-c2ccnc3[nH]ccc23)cc1)N1CCCC1 [GSK846226]	%	0

%Inh in this record for CCn1c(-c2cccnc2O)nc2cnccc21 [SB-736715] : 0

%Inh in this record for `Cc1cccc(-c2nc(-c3ccc(S(C)(=O)=O)cc3)sc2-c2ccnc(NCCc3ccccc3)c2)c1` : 6

%Inh in this record for COc1ccc(Nc2nccc(NCCNC(=O)Nc3ccccc3F)n2)cc1 [GSK1379901] : 0
